Assayed System: Oxysterol-binding protein 1 (Homo sapiens)
Sequence (P22059 whole entry): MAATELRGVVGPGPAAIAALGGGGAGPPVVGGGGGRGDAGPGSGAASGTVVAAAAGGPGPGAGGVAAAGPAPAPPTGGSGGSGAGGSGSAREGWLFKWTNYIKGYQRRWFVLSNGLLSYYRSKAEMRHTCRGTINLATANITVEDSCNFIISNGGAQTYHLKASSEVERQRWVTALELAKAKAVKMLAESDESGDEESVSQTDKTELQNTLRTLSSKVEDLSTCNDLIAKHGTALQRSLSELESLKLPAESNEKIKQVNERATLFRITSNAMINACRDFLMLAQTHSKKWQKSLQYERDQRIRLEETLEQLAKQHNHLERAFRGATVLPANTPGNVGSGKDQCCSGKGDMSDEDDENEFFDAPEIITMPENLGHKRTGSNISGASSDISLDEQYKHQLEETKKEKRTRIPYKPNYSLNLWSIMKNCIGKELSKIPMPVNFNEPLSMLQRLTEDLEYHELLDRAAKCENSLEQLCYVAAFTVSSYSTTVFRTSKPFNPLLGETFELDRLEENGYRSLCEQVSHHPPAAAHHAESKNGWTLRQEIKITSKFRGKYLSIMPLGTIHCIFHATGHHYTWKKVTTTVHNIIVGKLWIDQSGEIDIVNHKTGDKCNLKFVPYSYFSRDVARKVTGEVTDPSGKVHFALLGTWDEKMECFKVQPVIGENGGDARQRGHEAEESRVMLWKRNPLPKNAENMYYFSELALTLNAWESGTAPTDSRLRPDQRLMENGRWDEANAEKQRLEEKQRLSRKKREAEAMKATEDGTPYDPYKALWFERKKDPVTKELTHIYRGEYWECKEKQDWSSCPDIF
Test: Displacement of [3H]-25-OHC from human OSBP overexpressed in HEK293T cell lysate assessed as inhibition constant by competitive binding assay
Please respond with reported Ki for every item in the list.

**Q:** Given CC(C)C[C@](C)(O)[C@H]1CC[C@H]2[C@@H]3CC=C4C[C@@H](O)CC[C@]4(C)[C@H]3CC[C@@]21C , state its recorded Ki.
**A:** > 20 µM

**Q:** Given CC(C)CC[C@@H](O)[C@](C)(O)[C@H]1CC[C@H]2[C@@H]3CC=C4C[C@@H](O)CC[C@]4(C)[C@H]3CC[C@]12C , state its recorded Ki.
**A:** > 30 µM

**Q:** Given C[C@@H]1CC[C@@]2(OC1)O[C@H]1C[C@H]3[C@@H]4CC=C5C[C@@H](O)CC[C@]5(C)[C@H]4CC[C@]3(C)[C@H]1[C@@H]2C , state its recorded Ki.
**A:** > 100 µM
